Test system: SNB-19 CNS
Procedure text: NCI tumour cell line growth inhibition, 48 h
Value kind: TGI

molecule=O=C(O)c1cccc(OCCOc2cccc(C(=O)O)c2[N+](=O)[O-])c1[N+](=O)[O-] value_kind=TGI endpoint_value="> 100 µM"
molecule=CN1c2ccccc2C(=O)NC12CCNCC2 value_kind=TGI endpoint_value="> 100 µM"
molecule="Nc1nc(Br)nc2ncn(C3CC(O)C(CO)O3)c12 (stereo not given)" value_kind=TGI endpoint_value="> 100 µM"
molecule=O=c1nc2c(c(-c3ccc(F)cc3)[nH]1)COC/C2=C\c1ccc(F)cc1 value_kind=TGI endpoint_value="> 100 µM"
molecule=Cc1cccc(N=C/C=C(\Cl)c2ccc3ccccc3c2)c1 value_kind=TGI endpoint_value="33 µM"
molecule="COc1ccccc1N1C(=O)CSC1c1cc(OC)c(OC)c(OC)c1 (stereo not given)" value_kind=TGI endpoint_value="> 20.8 µM"
molecule="CCC1c2cc3n(c(=O)c2COC1O)Cc1c-3nc2ccccc2c1Cl (stereo not given)" value_kind=TGI endpoint_value="> 100 µM"
molecule=CC(=O)N(CCN1C(=O)c2ccccc2C1=O)CCN1C(=O)c2ccccc2C1=O value_kind=TGI endpoint_value="> 100 µM"
molecule="CCCNCC(O)CNc1ccc(NCC(O)CNCCC)c2c1C(=O)c1ccccc1C2=O (stereo not given)" value_kind=TGI endpoint_value="6.35 µM"
molecule=CCCCN(CC)CCCCCCCCCCN1CCCc2cc(OC)ccc21 value_kind=TGI endpoint_value="18.8 µM"
